# method: Urinary excretion of drug after rectal administration of suppositories to fasted rabbits (bioassay)
# Assay type: in vivo
# test.conditions: rabbit, urine, 100 mg, rectal suppository, 100 mg in potency, base WITEPSOL H-15, additive Na caprate, 2% NIKKOL BL-25, 4%, read-out: Urinary excretion (0-6 hours)
# Experimental: The suppositories were administered rectally to dogs or rabbits fasted for 24 hours. After administration, blood or urine sampling was conducted at times intervals and the drug concentration in blood or urinary drug excretion was estimated by determining the activity concentration by the bioassay method.
endpoint: dose excreted at 6 h (%)

compound	result.unit	value.reported
CN[C@@H]1[C@@H](O)[C@@H](O[C@@H]2[C@@H](O)[C@H](O[C@H]3OC(CN)=CC[C@H]3N)[C@@H](N)C[C@H]2N)OC[C@]1(C)O [Sisomicin]	%	51.6
